- STUDY_TARGET: recombinant CAK (CDK7, cyclin H, MAT1) (Homo sapiens, UniProt P50613)
- Construct: made in house; host or cells: Sf9 insect cells (baculovirus co-infection)
- Sequence (P51946 whole entry): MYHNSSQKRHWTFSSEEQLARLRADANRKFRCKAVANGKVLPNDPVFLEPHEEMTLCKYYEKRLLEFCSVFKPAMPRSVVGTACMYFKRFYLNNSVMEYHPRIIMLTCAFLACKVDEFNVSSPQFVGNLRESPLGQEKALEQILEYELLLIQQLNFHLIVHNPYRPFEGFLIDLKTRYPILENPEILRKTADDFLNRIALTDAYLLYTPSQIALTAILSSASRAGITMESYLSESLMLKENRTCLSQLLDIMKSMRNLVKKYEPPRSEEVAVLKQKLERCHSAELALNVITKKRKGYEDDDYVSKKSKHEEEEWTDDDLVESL
- Sequence (P50613 2-346): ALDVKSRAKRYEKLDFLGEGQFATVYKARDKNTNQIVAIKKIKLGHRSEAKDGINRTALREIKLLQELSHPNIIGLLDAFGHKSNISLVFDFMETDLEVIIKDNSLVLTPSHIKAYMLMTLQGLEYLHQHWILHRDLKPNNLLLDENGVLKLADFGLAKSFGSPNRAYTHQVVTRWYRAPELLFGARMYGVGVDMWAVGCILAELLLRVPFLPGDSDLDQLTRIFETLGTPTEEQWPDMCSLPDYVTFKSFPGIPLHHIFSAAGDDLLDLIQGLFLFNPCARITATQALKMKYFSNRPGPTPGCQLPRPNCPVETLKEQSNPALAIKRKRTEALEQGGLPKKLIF
- Sequence (P51949 whole entry, further chain): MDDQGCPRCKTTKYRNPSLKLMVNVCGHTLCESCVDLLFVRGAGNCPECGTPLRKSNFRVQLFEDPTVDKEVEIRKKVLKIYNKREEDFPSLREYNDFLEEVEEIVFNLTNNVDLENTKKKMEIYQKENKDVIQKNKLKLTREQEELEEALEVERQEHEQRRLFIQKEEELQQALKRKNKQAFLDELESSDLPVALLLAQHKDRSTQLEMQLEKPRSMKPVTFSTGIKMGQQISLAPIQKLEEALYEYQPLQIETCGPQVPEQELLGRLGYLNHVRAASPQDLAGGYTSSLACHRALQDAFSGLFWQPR
- MEASUREMENT_NOTES: Kinase reaction: phosphorylation of the CTD by recombinant CAK
- Type: biochemical
Where no end group is shown, it is not given here.
MEASURED_ENDPOINT: pIC50
The scale used: pIC50 is minus the common logarithm of the concentration in molar units.

Summary line: ARAFGVPVRTYAHEVVTLWYRA [mC2p] , recombinant CAK (CDK7, cyclin H, MAT1) (Homo sapiens, UniProt P50613), reported pIC50 = 5.89
